Conditions: PAMPA
Where a SMILES comes first, the peptide text is derived from it. [ ]: non-standard residue; d: D form. dNMeL = CN[C@H](CC(C)C)C(=O)O; NMeNle = CCCC[C@H](NC)C(=O)O
measurement_kind: PAMPA_R1

* CCCC[C@H]1C(=O)N[C@@H]([C@@H](C)CC)C(=O)N2CCC[C@H]2C(=O)N2CCC[C@@H]2C(=O)N[C@H](CC(C)C)C(=O)N[C@@H]([C@@H](C)CC)C(=O)N2CCC[C@@H]2C(=O)N[C@H](Cc2ccccc2)C(=O)N[C@@H](C(C)C)C(=O)N(C)[C@H](CC(C)C)C(=O)N1C [Design D10.44] (cyclo(IP[dP][dL]I[dP][dF]V[dNMeL][NMeNle])) | BQL
* CC[C@@H](C)[C@H]1NC(=O)[C@H](Cc2ccccc2)NC(=O)[C@@H](C)NC(=O)[C@@H](CC(C)C)N(C)C(=O)[C@@H]2CCCN2C(=O)[C@H](C)NC(=O)[C@H]2CCCN2C(=O)[C@@H]2CCCN2C(=O)[C@@H](Cc2ccccc2)NC1=O [Design D9.41] (cyclo(AP[dNMeL][dA]F[dI][dF]P[dP])) | 3.56E-06
* CC(C)C[C@@H]1C(=O)N(C)[C@@H](CC(C)C)C(=O)N2CCC[C@@H]2C(=O)N[C@H](CC(C)C)C(=O)N[C@H](C)C(=O)N2CCC[C@@H]2C(=O)N2CCC[C@H]2C(=O)N[C@@H](C)C(=O)N[C@H](Cc2ccccc2)C(=O)N[C@H](CC(C)C)C(=O)N[C@@H](C(C)C)C(=O)N1C (single isomer, unassigned) [Design D11.9.p2] | BQL

* * *

Test: Pharmacokinetics and oral bioavailability of D8.3.p1 and D10.1 in Balb/C female mice (PO, SQ, IV)
Format: in vivo
Conditions: female, Balb/C, mouse, plasma, iv, […], D10.1 IV […], individual mice M1, M2, M3; read-out: VSS
measurement_kind: Vd

• CC[C@H](C)[C@@H]1NC(=O)[C@@H](CC(C)C)NC(=O)[C@H](CC(C)C)N(C)C(=O)[C@H](Cc2ccccc2)NC(=O)CN(C)C(=O)[C@@H]2CCCN2C(=O)[C@H](C(C)C)NC(=O)[C@H](Cc2ccccc2)N(C)C(=O)[C@H]2CCCN2C(=O)[C@H](CC(C)C)NC1=O = 0.32 L/kg

* * *

Assay: in vitro
Conditions: PAMPA, PAMPA_Papp_Avg
Where a SMILES comes first, the peptide text is derived from it. [ ]: non-standard residue; d: D form. NMeL = CN[C@@H](CC(C)C)C(=O)O; dNMeL = CN[C@H](CC(C)C)C(=O)O; NMeA = CN[C@@H](C)C(=O)O; dNMeA = CN[C@H](C)C(=O)O
measurement_kind: Papp (×10⁻⁶ cm/s)

* CC[C@@H](C)[C@H]1NC(=O)[C@@H](Cc2ccccc2)NC(=O)[C@H](CC(C)C)NC(=O)[C@@H](C)N(C)C(=O)[C@@H](CC(C)C)NC(=O)[C@H](CC(C)C)NC(=O)[C@H]2CCCN2C(=O)[C@@H]2CCCN2C(=O)[C@@H](C)NC(=O)[C@H]2CCCN2C1=O [Design D10.37] (cyclo(L[dF][dI][dP][dA]P[dP]L[dL][dNMeA])) | 0.654
* CC[C@@H](C)[C@H]1NC(=O)[C@@H](CC(C)C)NC(=O)[C@@H](CC(C)C)NC(=O)[C@H]2CCCN2C(=O)[C@H](CC(C)C)N(C)C(=O)[C@@H](C)N(C)C(=O)[C@@H]2CCCN2C(=O)[C@@H]([C@H](C)CC)NC(=O)[C@@H](C(C)C)NC(=O)[C@@H]2CCCN2C1=O [Design D10.46] (cyclo([NMeL][dP][dL][dL][dI]P[dV][dI]P[dNMeA])) | 0.684
* CC[C@H](C)[C@@H]1NC(=O)[C@H](CC(C)C)N(C)C(=O)[C@H]2CCCN2C(=O)[C@H]2CCCN2C(=O)[C@H](Cc2ccccc2)NC(=O)[C@@H](CC(C)C)NC(=O)[C@H]2CCCN2C(=O)[C@@H]2CCCN2C1=O [Design D8.27, PHE DPRO DPRO *LEU ILE PRO DPRO DLEU] (cyclo(F[dP][dP][NMeL]IP[dP][dL])) | 0.282
* CC[C@@H](C)[C@H]1NC(=O)[C@H](C(C)C)NC(=O)[C@H]2CCCN2C(=O)[C@@H]2CCCN2C(=O)[C@H](CC(C)C)N(C)C(=O)[C@H](C)N(C)C(=O)[C@@H](CC(C)C)N(C)C(=O)[C@H](C)NC(=O)[C@@H](Cc2ccccc2)NC(=O)[C@@H]2CCCN2C1=O [Design D10.25] (cyclo(A[dNMeL][NMeA][NMeL]P[dP]V[dI]P[dF])) | 0.452
* CC[C@@H](C)[C@H]1NC(=O)[C@H](Cc2ccccc2)NC(=O)[C@@H](C)NC(=O)[C@@H](CC(C)C)N(C)C(=O)[C@@H]2CCCN2C(=O)[C@H](C)NC(=O)[C@H]2CCCN2C(=O)[C@@H]2CCCN2C(=O)[C@@H](Cc2ccccc2)NC1=O [Design D9.41] (cyclo(AP[dNMeL][dA]F[dI][dF]P[dP])) | 3.48
